System: BjussuLAAO-II
Details: read-out: Km (mM) / Mean ± SD; 0.1 M HEPES pH 7, 45 °C, 2 mM OPD, 1 U/mL HRP
Where Km equals or exceeds 1 mM, the correct label is T; where it does not, the label is F.

INSERT INTO results (compound_structure, qualitative_label) VALUES
  ('CC[C@H](C)[C@H](N)C(=O)O', 'T'),
  ('NC(=O)CC[C@H](N)C(=O)O', 'T'),
  ('N[C@@H](Cc1ccccc1)C(=O)O', 'F'),
  ('N[C@@H](Cc1ccc(O)cc1)C(=O)O', 'T'),
  ('CC(C)C[C@H](N)C(=O)O', 'F'),
  ('CSCC[C@H](N)C(=O)O', 'F'),
  ('N[C@@H](Cc1cnc[nH]1)C(=O)O', 'T');
